Origin of values: paper PMC6633205

tested system: T1, Cus2 UHM (residues 177-269) (S. cerevisiae, UniProt P53830 177-269)
T1 construct: Expressed as a GST fusion from a pGEX-6p variant with a TEV cleavage site for the GST tag; also called isolated Cus2 UHM
T1 sequence (looked up): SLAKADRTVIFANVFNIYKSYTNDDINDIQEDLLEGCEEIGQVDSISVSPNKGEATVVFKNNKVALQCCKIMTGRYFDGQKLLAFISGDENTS
experiment description: ITC; apparent; Cus2 or Tat-SF1 proteins titrated with Hsh155 ULM peptide (95-109); 50 mM NaCl, 25 mM HEPES pH 7.4, 0.2 mM TCEP; VP-ITC; three replicates
test settings: both partners purified
measure: Kd (nM)
Kindly answer with a numeric value in nM, unit omitted.

Would you kindly share the measured Kd for RKRKSRWDVKGYEPP (peptide, UniProt P49955 95-109, looked up, source: synthetic peptide, bought: Biomatik Corp. (98% purity)) [Hsh155 ULM peptide (residues 95-109)] ?
18
